target: LTB4 Receptor (Homo sapiens, UniProt Q15722); construct: Isolated human neutrophils in Gey's salt solution; endogenous in cells; assay: LTB4 Receptor Binding Assay (inhibition of 3H-LTB4 binding, human neutrophils); conditions: 0.5 nM 3H-LTB4, 45 minutes on ice, isolated human neutrophils
Sequence (Q15722 whole entry): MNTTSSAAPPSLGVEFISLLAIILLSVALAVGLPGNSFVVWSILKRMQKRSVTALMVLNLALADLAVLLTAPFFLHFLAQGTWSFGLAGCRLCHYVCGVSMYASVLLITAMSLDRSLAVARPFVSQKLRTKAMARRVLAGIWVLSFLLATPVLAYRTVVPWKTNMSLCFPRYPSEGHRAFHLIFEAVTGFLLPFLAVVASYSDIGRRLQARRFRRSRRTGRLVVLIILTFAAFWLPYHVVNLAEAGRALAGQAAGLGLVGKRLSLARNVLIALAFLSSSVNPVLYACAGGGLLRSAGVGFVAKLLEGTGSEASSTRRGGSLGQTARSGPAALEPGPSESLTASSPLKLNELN
Doc: threshold 80 nM (exclusive). Items with Ki beneath it return Fulfilled; others return Not fulfilled.

Solved entries:
INSERT INTO assay_data (mol_smiles, class_name) VALUES
  ('CCCc1ccc2c(c1OCCCCCOc1ccccc1CCC(=O)O)CCCC2=O', 'Not fulfilled'),
  ('CCCc1c(OCCCCCOc2ccc(CCC(=O)O)cc2CCC(=O)O)ccc2c1OCCC2=O', 'Fulfilled'),
  ('CCCc1c(OCCCCCCc2ccc(C(=O)c3cccc(C(=O)O)c3)cc2CCC(=O)O)ccc2c1OCCC2=O', 'Fulfilled'),
  ('CCCc1c(CCCCCCOc2ccccc2CCC(=O)O)ccc2c1OCCC2=O', 'Fulfilled');

Query :: Given "CCCc1c(OCCCCCOc2ccc3oc(C(=O)O)cc3c2)ccc2c1OCCC2=O" , is recorded Ki strictly lower than 80 nM?
Result :: Not fulfilled

Query :: What about "CCCc1c(OCCCCCOc2ccc(Cl)cc2CCC(=O)O)ccc2c1OCCC2=O" ?
Result :: Fulfilled

Query :: Also check "CCCc1c(OCCCCCOc2ccc(C(=O)Cc3ccccc3C(=O)O)cc2CCC(=O)O)ccc2c1OCCC2=O"
Result :: Fulfilled

###

test system: LTB4 -induced bronchoconstriction; test: Guinea Pig Bronchoconstriction In Vivo (LTB4-induced); parameters: species or system guinea pig (Hartley strain); details: Cavia porcellus, po, read-out: ID50 (mg/kg), p.o., LTB4-induced bronchoconstriction
observation type: log10 of ED50 (log10 of the value in mg/kg)
Kindly note that the scale is log10 and the underlying ED50 is in mg/kg.

INSERT INTO measurements (compound, observation_type, reported_result) VALUES
  ('O=C(O)CCCCCOc1cccc(CCCCCCOc2ccc3c(c2CCCc2ccccc2)OCCC3=O)c1CCC(=O)O [Example 200]', 'log10 of ED50', -0.80),
  ('CCCc1c(OCCCCCCc2cccc(CCCCCC(=O)O)c2CCC(=O)O)ccc2c1OCCC2=O [Example 169]', 'log10 of ED50', 0.64),
  ('CCCc1c(OCCCCCCc2cccc(OCCCC(C)(C)C(=O)O)c2CCC(=O)O)ccc2c1OCCC2=O [Example 174]', 'log10 of ED50', 0.04),
  ('CCCc1c(OCCCCCCc2cccc(OCCCCCO)c2CCC(=O)O)ccc2c1OCCC2=O [Example 180]', 'log10 of ED50', 0.68),
  ('CCCc1c(OCCCCCOc2ccc(CCCCC(=O)O)cc2CCC(=O)O)ccc2c1OCCC2=O [Example 215]', 'log10 of ED50', 0.67);

We next turn to a different compound, shown below.
Query :: For CCCc1c(OCCCCCCc2cccc(OCCCCCC(=O)O)c2CCC(=O)O)ccc2c1OCCC2=O [Example 157] , what is its reported log10 of ED50?
Result :: -0.57

###

target: LTB4 Receptor (Homo sapiens, UniProt Q15722); construct: Isolated human neutrophils in Gey's salt solution; endogenous in cells; assay: LTB4 Receptor Binding Assay (inhibition of 3H-LTB4 binding, human neutrophils); conditions: 0.5 nM 3H-LTB4, 45 minutes on ice, isolated human neutrophils
observation type: pKi
Please keep in mind that pKi is minus log10 of the molar concentration; only the number is needed.

Known pKi results, listed for orientation:
INSERT INTO measurements (molecule, reported_result) VALUES
  ('CCCc1c(OCCCCCOc2ccc(C(C)=O)cc2CCC(=O)O)ccc2c1OCCC2=O [Example 33]', 8.00),
  ('CCCc1c(C#CCCCCOc2ccccc2CCC(=O)O)ccc2c1OCCC2=O [Example 107]', 7.30),
  ('CCCc1c(OCCCCCOc2ccc(C(=O)c3ccc(C(=O)O)cc3)cc2CCC(=O)O)ccc2c1OCCC2=O [Example 85]', 8.52),
  ('CCCc1c(OCCCCCOc2cccc(OCCCCC(=O)O)c2CCC(=O)O)ccc2c1OCCC2=O [Example 62]', 9.10),
  ('CCCc1c(OCCCCCOc2ccc3ccc(OCC(=O)O)cc3c2CCC(=O)O)ccc2c1OCCC2=O [Example 226]', 9.00),
  ('CCCc1c(OCCCCCCc2ccc(OCCCC(=O)O)cc2/C=C/C(=O)O)ccc2c1OCCC2=O [Example 114]', 9.00),
  ('CCCc1c(OCCCCCCc2cccc(OCCCC(C)(C)C(=O)O)c2CCC(=O)O)ccc2c1OCCC2=O [Example 174]', 9.00);

Query :: Lookup: pKi / LTB4 Receptor (Homo sapiens, UniProt Q15722) / CCCc1c(OCCCCCCc2cccc(OCCCCCO)c2CCC(=O)O)ccc2c1OCCC2=O [Example 180]
Result :: 9.00

###

biological target: LTB4 Receptor (Homo sapiens); construct: Isolated human neutrophils in Gey's salt solution; endogenous in cells; assay: LTB4 Receptor Binding Assay (inhibition of 3H-LTB4 binding, human neutrophils); conditions: 0.5 nM 3H-LTB4, 45 minutes on ice, isolated human neutrophils
# Ki per record follows
Give the figure together with its unit, number first.

INSERT INTO measurements (molecule, reported_result) VALUES
  ('CCCCCc1c(OCCCCCOc2ccccc2CCC(=O)O)ccc2c1OCCC2=O [Example 118]', '607 nM'),
  ('CCCc1c(OCCCCCOc2ccc(C(=O)c3cccc(C(=O)O)c3)cc2CCC(=O)O)ccc2c1OCCC2=O [Example 20]', '2 nM'),
  ('CCCc1c(OCCCCCCc2ccc(C(=O)CCCC(=O)O)cc2CCC(=O)O)ccc2c1OCCC2=O [Example 211]', '0.8 nM'),
  ('CCCc1c(OCCCCCc2ccccc2CCC(=O)O)ccc2c1OCCC2=O [Example 8]', '63 nM'),
  ('CCCc1c(OCCCCCCc2cccc(OCCCCC(=O)N(C)C)c2CCC(=O)N(C)C)ccc2c1OCCC2=O [Example 196]', '200 nM');

Please examine the following record next.
Query :: Request - read-out Ki | tested on LTB4 Receptor (Homo sapiens) | molecule O=C(O)CCc1ccccc1OCCCCCOc1ccc2c(c1CCCc1ccccc1)OCCC2=O [Example 195]
Result :: 95 nM

###

Target: LTB4 Receptor (Homo sapiens, UniProt Q15722)
Construct: Isolated human neutrophils in Gey's salt solution; endogenous in cells
Experiment: LTB4 Receptor Binding Assay (inhibition of 3H-LTB4 binding, human neutrophils)
Details: 0.5 nM 3H-LTB4, 45 minutes on ice, isolated human neutrophils
Procedure: Binding assays can be performed in microtiter wells. Isolated human neutrophils in Gey's salt solution are incubated on ice for 45 minutes with 0.5 nM ^3 H-LTB4 in the presence or absence of test compounds. Assays are terminated by adding 12 ml ice cold 50 mM Tris (pH 7.4) followed by rapid filtration under vacuum through GF/C filters. Radioactivity is determined by scintillation counting. […] Ki (Inhibition Constant) values were determined using the Cheng-Prusoff relationship (Cheng and Prusoff, 1973). […]
// reported Ki per item
Numeric only. Scale: nM

Some compounds with known Ki results, for comparison:
INSERT INTO results (mol_smiles, unit_of_measure, reported_result) VALUES
  ('CCCc1c(OCCCCCOc2ccc3cc(OCC(=O)O)ccc3c2CCC(=O)O)ccc2c1OCCC2=O', 'nM', 0.8),
  ('CCCc1c(OCCCCCOc2ccc(C(=O)CCCC(=O)O)cc2CCC(=O)O)ccc2c1OCCC2=O', 'nM', 3),
  ('CCCc1c(OCCCCCOc2ccc(OCCCC(=O)O)cc2CCC(=O)O)ccc2c1OCCC2=O', 'nM', 3),
  ('CCCc1c(OCCCC/C=C/c2ccc(C(=O)c3cccc(C(=O)O)c3)cc2CCC(=O)O)ccc2c1OCCC2=O', 'nM', 4),
  ('CCCc1c(OCCCCCCCOc2ccc(C(=O)c3cccc(C(=O)O)c3)cc2CCC(=O)O)ccc2c1OCCC2=O', 'nM', 3);

Query :: Please give the measured Ki for this compound: "CCCc1c(OCCCCCCc2cccc(CCCCCC(=O)O)c2CCC(=O)O)ccc2c1OCCC2=O"
Result :: 1

Query :: Ok, now "CCCc1c(OCCCCCOc2ccc(C(=O)c3ccccc3CC(=O)O)cc2CCC(=O)O)ccc2c1OCCC2=O"
Result :: 8

###

target: LTB4 Receptor (Homo sapiens); construct: Isolated human neutrophils in Gey's salt solution; endogenous in cells; assay: LTB4 Receptor Binding Assay (inhibition of 3H-LTB4 binding, human neutrophils); conditions: 0.5 nM 3H-LTB4, 45 minutes on ice, isolated human neutrophils
observation type: Ki (nM)
Give your result in nM as a bare value.

Would you please look over these solved cases?
INSERT INTO measurements (compound, reported_result) VALUES
  ('CCCc1c(OCCCCCOc2cccc(CCC(=O)O)c2)ccc2c1OCCC2=O', 60),
  ('O=C(O)CCc1ccccc1OCCCCCOc1ccc2c(c1Cc1ccccc1)OCCC2=O', 150),
  ('CCCc1c(OCCCCOc2ccc(C(=O)c3cccc(C(=O)O)c3)cc2CCC(=O)O)ccc2c1OCCC2=O', 15),
  ('CCCc1c(OCCCCCOc2ccc3nc(CCC(=O)O)ccc3c2CCC(=O)O)ccc2c1OCCC2=O', 2),
  ('CCCc1c(OCCCCCOc2ccc(C(=O)CCC(=O)O)cc2CCC(=O)O)ccc2c1OCCC2=O', 4),
  ('CCCc1c(OCCCCCOc2ccc(OCCCCC(=O)O)cc2CCC(=O)O)ccc2c1OCCC2=O [Example 58, Hemihydrate]', 4),
  ('CCCc1c(OCCCCCOc2ccccc2OCC(=O)O)ccc2c1OCCC2=O', 70);

As a next step, examine the compound that follows.
Query :: Given the compound "CCCc1c(OCCCCCOc2ccccc2CCCCC(=O)O)ccc2c1OCCC2=O" , what is its reported Ki?
Result :: 200

src = patent US5434186A
